Source listed as paper PMC9482650.

measuredTarget: T1, LNX2_3, Q8N448
T1 sequence (Q8N448 463-564, limits assumed, looked up): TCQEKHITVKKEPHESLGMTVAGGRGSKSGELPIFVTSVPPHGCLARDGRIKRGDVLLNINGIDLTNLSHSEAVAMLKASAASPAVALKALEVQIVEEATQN
test: holdup assay
Design: key: below the threshold = too weak to quantify, mostly under pKd 3.1 to 4
statedConditions: plain residues with an end cap or a label only (N-terminal biotin on a linker: ado-ado)
propertyMeasured: pKd

Field: example entries. Status: answers known.
- binder: "QKNKDREYYV [NRXN3, Q9HDB5]"
  pKd: "below the threshold"
- binder: "NTALVESEDL [PALLS, Q8WX93;Q8WX93-1]"
  pKd: "below the threshold"
- binder: "NKSEPFLTWL [WWTR1, Q9GZV5]"
  pKd: "below the threshold"
- binder: "AKADAQESRL [PLCB2, Q00722]"
  pKd: "below the threshold"
- binder: "GVHSNDHSVV [LPAR1, Q92633]"
  pKd: "below the threshold"
- binder: "PGKKPEDSRV [SLCO2B1, O94956]"
  pKd: "below the threshold"
- binder: "ATKDKKITTV [EXOC4, Q96A65]"
  pKd: 3.48
- binder: "GQNMTVSVVI [PRLHR, P49683]"
  pKd: 3.61

The value of pKd measured for the binder THHRKIHTRV [ZNF599, Q96NL3] turned out to be 3.51

Form field pKd, entry ELKAEDEVQI [DCHS2, Q6V1P9] : below the threshold

Reported pKd of SQDPKKPSRV [CBY2, Q8NA61] : below the threshold

Sure, the documented pKd for FHSIKQSTAV [CRHR1, P34998] is below the threshold

Lab note: measured pKd of GTMFLRETSL [GUCY1A2, P33402] was below the threshold

Looking up THREVKFTSL [CD46, P15529] , I found its pKd recorded as below the threshold

The value of pKd measured for the binder EFKQTSSFLV [JAM1, Q9Y624] turned out to be below the threshold

Query PEKVSNTTVV [IGSF5, Q9NSI5] yields pKd of below the threshold
